# experimental_target: dopamine D2 receptors (Rattus norvegicus, UniProt P61169)
# Construct: found in homogenized limbic brain tissue; from tissue; host or cells: homogenized limbic brain tissue
# Sequence (P61169 whole entry): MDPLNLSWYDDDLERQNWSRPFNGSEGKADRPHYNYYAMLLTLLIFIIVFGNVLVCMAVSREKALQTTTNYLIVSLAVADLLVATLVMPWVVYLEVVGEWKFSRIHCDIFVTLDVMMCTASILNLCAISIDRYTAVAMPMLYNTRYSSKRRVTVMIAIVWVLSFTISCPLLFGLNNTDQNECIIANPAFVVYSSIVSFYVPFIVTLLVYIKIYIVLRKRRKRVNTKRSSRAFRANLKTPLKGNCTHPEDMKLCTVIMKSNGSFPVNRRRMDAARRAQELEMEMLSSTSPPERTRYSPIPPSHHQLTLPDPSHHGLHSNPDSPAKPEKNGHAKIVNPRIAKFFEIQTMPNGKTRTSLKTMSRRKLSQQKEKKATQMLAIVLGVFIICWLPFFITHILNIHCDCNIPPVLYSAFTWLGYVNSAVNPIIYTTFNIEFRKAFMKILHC
# experiment_summary: inhibition of 3H-haloperidol binding at dopamine D2 receptors in homogenized limbic brain tissue
# run_conditions: at 1 μM, 3H-haloperidol, read-out: Receptor Binding D2 % Inhibition at 1 μM
outcome_measure: inhibition at 1 µM

Some solved entries appear below for comparison.
>  <compound>
CN1CCN(CC(c2cccc(Cl)c2)C2(O)CCCCC2)CC1 (stereo not shown)

>  <experimental_target>
dopamine D2 receptors (Rattus norvegicus, UniProt P61169)

>  <inhibition at 1 µM>
26%

$$$$
>  <compound>
COc1ccc(C(CCN2CCN(c3cncc(Cl)n3)CC2)C2(O)CCCCC2)cc1 (stereo not shown)

>  <experimental_target>
dopamine D2 receptors (Rattus norvegicus, UniProt P61169)

>  <inhibition at 1 µM>
15%

$$$$
>  <compound>
COc1ccc(C(CCN2CCN(Cc3ccccc3)CC2)C2(O)CCCCC2)cc1 (stereo not shown)

>  <experimental_target>
dopamine D2 receptors (Rattus norvegicus, UniProt P61169)

>  <inhibition at 1 µM>
55%

$$$$
>  <compound>
COc1cccc(C(CN2CCN(Cc3ccccc3)CC2)C2(O)CCCCC2)c1 (stereo not shown)

>  <experimental_target>
dopamine D2 receptors (Rattus norvegicus, UniProt P61169)

>  <inhibition at 1 µM>
90%

$$$$

Recorded inhibition at 1 µM for COc1cccc(C(CCN2CCN(c3ncccn3)CC2)C2(O)CCCCC2)c1 (stereo not shown) , please?
59%

And OC1(C(CN2CCN(c3cccc(Cl)c3)CC2)c2cccc(Cl)c2)CCCCC1 (stereo not shown) ?
32%

And COc1cccc(C(CCN2CCN(Cc3ccc(Cl)cc3)CC2)C2(O)CCCCC2)c1 (stereo not shown) ?
51%

And COc1ccc(C(CCN2CCN(Cc3ccc(C(F)(F)F)cc3)CC2)C2(O)CCCCC2)cc1 (stereo not shown) ?
25%

And COc1ccc(C(CCN2CCN(Cc3cccc(Cl)c3)CC2)C2(O)CCCCC2)cc1 (stereo not shown) ?
95%

And COc1ccc(C(CCN2CCN(Cc3cccc(C(F)(F)F)c3)CC2)C2(O)CCCCC2)cc1 (stereo not shown) ?
100%

And COc1ccc(C(CCN2CCN(Cc3ccccc3OC)CC2)C2(O)CCCCC2)cc1 (stereo not shown) ?
77%

And COc1cccc(C(CN2CCN(c3cccc(Cl)c3)CC2)C2(O)CCCCC2)c1 (stereo not shown) ?
39%

And COc1cccc(C(CCN2CCN(Cc3cccc(Cl)c3)CC2)C2(O)CCCCC2)c1 (stereo not shown) ?
90%

And COc1ccc(C(CCN2CCN(Cc3cccc(OC)c3)CC2)C2(O)CCCCC2)cc1 (stereo not shown) ?
73%

And COc1ccc(C(CCN2CCN(c3ncccn3)CC2)C2(O)CCCCC2)cc1 (stereo not shown) ?
11%

And COc1cccc(C(CCN2CCN(Cc3ccccc3OC)CC2)C2(O)CCCCC2)c1 (stereo not shown) ?
91%

And COc1cccc(C(CCN2CCN(Cc3cccc(F)c3)CC2)C2(O)CCCCC2)c1 (stereo not shown) ?
89%

And COc1cccc(C(CCN2CCN(c3cncc(Cl)n3)CC2)C2(O)CCCCC2)c1 (stereo not shown) ?
41%

And CN1CCN(CC(c2cccc(C(F)(F)F)c2)C2(O)CCCCC2)CC1 (stereo not shown) ?
0%
